B1: PEX5 peptide 108-123 (Peroxisomal targeting signal 1 receptor), 16-mer library wild type / PEX14 Pex14 (PEX14 PEX14, residues 16-84) (parent)
chain 1: GVADLALSENWAQEFL
chain 2: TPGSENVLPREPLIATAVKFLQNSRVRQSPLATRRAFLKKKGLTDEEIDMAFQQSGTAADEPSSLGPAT

- Variants of: B1
- Test method notes: proteomic peptide phage display deep mutational scan (ProP-PD DMS): M13 P8 16-mer library selected against immobilised GST-tagged bait for four days (rounds), NGS of the eluted pools per day and pseudo-replica
- Cond: with PEX14 Pex14 (PEX14 PEX14, residues 16-84); bait immobilised on MaxiSorp plates (10 µg), library pre-cleared on GST, 2 h binding at 4 °C, five washes; one round per day, days 1-4; value from days 2 and 3; scale: average fractional NGS count over selection days 2 and 3
Reported screen value values are given for each entry in this list.
Readout type: screen value

>>> print(df.to_string())
             var  readout_type  measured
 0   chain 1 V2Y  screen value   0.00067
 1   chain 1 V2K  screen value         0
 2   chain 1 V2R  screen value         0
 3  chain 1 A12I  screen value  0.000211
 4   chain 1 D4I  screen value  9.56e-05
 5   chain 1 V2N  screen value         0
 6  chain 1 F15H  screen value   0.00727
 7  chain 1 A12P  screen value         0
 8   chain 1 V2W  screen value         0
 9  chain 1 E14D  screen value  0.000196
10  chain 1 E14W  screen value   0.00347
11  chain 1 A12S  screen value  0.000254
